ASSAY SYSTEM: fMet-Leu-Phe receptor (Homo sapiens)
EXPERIMENTAL PROTOCOL: Inhibitory activity against Human formylpeptide receptor (FPR) of human leukemia HL-60 cells
Format: cell-based
Entries annotated with measured IC20

[[record]]
compound = "CC/C=C/C[C@@H](C)[C@@H](O)[C@H]1C(=O)N[C@@H](CC)C(=O)N(C)[C@@H](Cc2ccccc2)C(=O)N(C)[C@H](CC(C)C)C(=O)N[C@H](C(C)C)C(=O)N(C)[C@H](CC(C)C)C(=O)N[C@@H](C)C(=O)N[C@H](C)C(=O)N(C)[C@@H](CC(C)C)C(=O)N(C)[C@@H](CC(C)C)C(=O)N(C)[C@@H](C(C)C)C(=O)N1C"
endpoint_value = "> 10 µM"

[[record]]
compound = "CC[C@@H]1NC(=O)[C@H](CC(C)C)N(C)C(=O)[C@H](C(C)C)N(C)C(=O)[C@H](CC(C)C)N(C)C(=O)[C@H](CC(C)C)N(C)C(=O)[C@@H](C)NC(=O)[C@H](C)NC(=O)[C@@H](CC(C)C)N(C)C(=O)[C@@H](C(C)C)NC(=O)[C@@H](CC(C)C)N(C)C(=O)CN(C)C1=O"
endpoint_value = "> 10 µM"


Attention now turns to another entry.
Input CC[C@@H]1NC(=O)[C@H](C2CCCCC2C)N(C)C(=O)[C@H](C(C)C)N(C)C(=O)[C@H](CC(C)C)N(C)C(=O)[C@H](CC(C)C)N(C)C(=O)[C@@H](C)NC(=O)[C@@H](C)NC(=O)[C@@H](CC(C)C)N(C)C(=O)[C@@H](C(C)C)NC(=O)[C@@H](CC(C)C)N(C)C(=O)CN(C)C1=O (stereo partly drawn) . Output IC20: > 10 µM
